Taken from patent US6552080B1.

tested on: Erysiphae graminis; assay: Fungicidal activity against Barley Powdery Mildew (BPM) disease; format: in vivo; conditions: Barley Powdery Mildew; concentration 50 ppm
// reported BPM (Fungicidal Activities, C.V.) per item

- SMI: "CCc1ccc(C=C(F)Oc2cccc(C(C)=NOCc3ccccc3C(=COC)C(=O)OC)c2)cc1"
  BPM (Fungicidal Activities, C.V.): "100%"
- SMI: "CNC(=O)C(=NOC)c1ccccc1CON=C(C)c1cccc(OC(F)=Cc2cccc(OC)c2)c1"
  BPM (Fungicidal Activities, C.V.): "100%"
- SMI: "COC=C(C(=O)OC)c1ccccc1CON=C(C)c1cccc(OC(F)=Cc2ccc(C)cc2)c1"
  BPM (Fungicidal Activities, C.V.): "100%"

Entry CCc1ccc(C=C(F)Oc2cccc(C(C)=NOCc3ccccc3C(=NOC)C(=O)NC)c2)cc1 , BPM (Fungicidal Activities, C.V.) reported as 100%

Entry COC=C(C(=O)OC)c1ccccc1CON=C(C)c1cccc(OC(F)=C(c2ccc(OC)cc2)C(F)(F)F)c1 — recorded BPM (Fungicidal Activities, C.V.) = 100%

BPM (Fungicidal Activities, C.V.) in this record for CNC(=O)C(=NOC)c1ccccc1CON=Cc1cccc(OC(F)=C(c2cccc(OC)c2)C(F)(F)F)c1 : 93%
